Each item that follows carries a reported Liver weight.
Test: Tolerability in Balb/c mice, body and organ weights (Example 11)
Type: in vivo
Conditions: 50 mg/kg subcutaneously twice a week for four weeks, end of study
Strand notation (5' to 3'): a small letter for the sugar, then the base; units joined by * are phosphorothioate-linked, units joined directly phosphodiester-linked; [ ] holds rarer units or linkages, { } end groups; capitals alone tell only the bases. k = constrained ethyl (cEt); [5mC] = 5-methylcytosine; d = 2'-deoxy (DNA)
Recorded Metric: Liver weight

> print(dat)
                                  substance  recorded.result
1  716480 (antisense kG*k[5mC]*kA*dA*dG*dT*d[5mC]*dT*dT*dG*dT*dA*dA*kG*kT*kA) [compound 716480]           2.58 g
2  716455 (antisense kG*kT*kT*dA*dT*dG*dT*dT*dT*dG*dG*dG*dT*kG*kT*kG) [compound 716455]           2.66 g
3  716513 (antisense kA*kA*kT*d[5mC]*dT*dT*dA*dA*dT*d[5mC]*dT*dG*dT*kG*kG*k[5mC]) [compound 716513]           1.59 g
4  716502 (antisense k[5mC]*kA*k[5mC]*dA*dG*dT*dG*dA*dT*dT*dG*d[5mC]*dA*kT*kT*kT) [compound 716502]           2.18 g
